Attribute: IC50
Test system: HT 29 (Colon adenocarcinoma)
Experiment Notes: In vitro cytotoxicity, microculture tetrazolium (MTT) assay, HT29
Format: cell-based, Human
Assay Context: Homo sapiens, HT-29, 48 h with compound, further 48 h, Table 1
Protocol: The microculture tetrazolium assay was used to test in vitro cytotoxicity. This assay is described in Plumb, J. A. et al., 1989 Cancer Research 49, 4435-4440, which is herein incorporated by reference. The cytotoxicity of compounds towards tumor cells is measured in vitro using the assay. […]
Give the number; nM is assumed, so skip it.

## Input Form field: IC50 recorded for CC(=O)[C@H]1CC2=C(C(=O)c3ccccc3C2=O)[C@H](O[C@H]2C[C@H](NC(=O)C(F)(F)F)[C@H](O)[C@H](C)O2)S1 with HT 29 (Colon adenocarcinoma) (enter value)
## Output 2700

## Input Form field: IC50 recorded for COCC1(COC)CC2=C(C(=O)c3ccccc3C2=O)[C@H](O[C@H]2C[C@H](NC(=O)C(F)(F)F)[C@H](O)[C@H](C)O2)O1 with HT 29 (Colon adenocarcinoma) (enter value)
## Output 11000

----------
Test system: HT 29 (Colon adenocarcinoma)
Experiment Notes: In vitro cytotoxicity, microculture tetrazolium (MTT) assay, HT29
Assay type: cell-based, Human
Assay Context: Homo sapiens, HT-29, 48 h with compound, further 48 h, Table 1
Returns the class for an entry based on its IC50. Class ranges: low end: < 300 nM; middle: ≥ 300 nM and < 5000 nM; high end: ≥ 5000 nM

CC(=O)C1CC2=C(C(=O)c3ccccc3C2=O)C(O[C@H]2C[C@H](NC(=O)C(F)(F)F)[C@H](OS(C)(=O)=O)[C@H](C)O2)O1 (mixture of isomers)
low end
COC1OC(C(C)=O)=CC2=C1C(=O)c1ccccc1C2=O (centres unmarked)
middle
Nc1nc(C2CC3=C(CO2)C(=O)c2ccccc2C3=O)cs1 (centres unmarked)
high end
CC(=O)C1CC2=C(CO1)C(=O)c1ccc(O)cc1C2=O (centres unmarked)
high end
CC[C@H]1CC2=C(C(=O)c3ccccc3C2=O)[C@H](O[C@H]2C[C@H](NC(=O)C(F)(F)F)[C@H](O)[C@H](C)O2)O1
high end

## Input Class (by measured IC50) for CC(=O)C1CC2=C(C(=O)c3ccccc3C2=O)C(OC[C@@H]2CCCN2C(=O)OC(C)(C)C)O1 (mixture of isomers)
## Output middle

## Input Class (by measured IC50) for COC(=O)[C@]1(C)CC2=C(C(=O)c3ccccc3C2=O)[C@H](O[C@H]2C[C@H](NC(=O)C(F)(F)F)[C@H](O)[C@H](C)O2)O1
## Output middle

----------
Tested on: SKOV3 (Ovarian adenocarcinoma)
Experiment Notes: In vitro cytotoxicity, microculture tetrazolium (MTT) assay, SKOV3
Format: cell-based, Human
Assay Context: Homo sapiens, SK-OV-3; SKOV3 ovarian adenocarcinoma; 48 h with compound, further 48 h, MTT; Table 1
Quantity: IC50

## Input Dear colleague, I am looking for the recorded IC50 of the following molecule: CC(=O)C1CC2=C(C(=O)c3ccccc3C2=O)C(OC[C@@H]2CCCN2C(=O)OC(C)(C)C)O1 (mixture of isomers) [BCH2067]
## Output 1.2 µM

----------
Tested on: HT 29 (Colon adenocarcinoma)
Experiment Notes: In vitro cytotoxicity, microculture tetrazolium (MTT) assay, HT29
Format: cell-based, Human
Assay Context: Homo sapiens, HT-29, 48 h with compound, further 48 h, Table 1
Counter-ions that a name gives are not always drawn.
Quantity: IC50 (nM)
Give the number; nM is assumed, so skip it.

## Input Dear colleague, I am looking for the recorded IC50 of the following compound: COC(=O)[C@@H](N)COC1OC(C(C)=O)CC2=C1C(=O)c1ccccc1C2=O (mixture of isomers) [BCH1654, hydrochloride]
## Output 3580

----------
Tested on: T47D (Ductal carcinoma of breast)
Experiment Notes: In vitro cytotoxicity, microculture tetrazolium (MTT) assay, T47D
Type: cell-based, Human
Assay Context: Homo sapiens, 48 h with compound, further 48 h, Table 1
Quantity: IC50 (nM)
Give the number; nM is assumed, so skip it.

Worked examples, 4 compounds total:
CC(C)C(=O)[C@@H]1CC2=C(C(=O)c3ccccc3C2=O)[C@@H](O[C@H]2C[C@H](NC(=O)C(F)(F)F)[C@H](O)[C@H](C)O2)O1
270
COC1OC(C(C)=O)=CC2=C1C(=O)c1ccccc1C2=O (stereo not shown)
452
CC(=O)[C@@H]1CC2=C(C(=O)c3ccc(O)cc3C2=O)[C@@H](O[C@H]2C[C@H](NC(=O)C(F)(F)F)[C@H](O)[C@H](C)O2)O1
9230
CC[C@@H]1CC2=C(C(=O)c3ccccc3C2=O)[C@@H](O[C@H]2C[C@H](NC(=O)C(F)(F)F)[C@H](O)[C@H](C)O2)O1
31400

## Input Form field: IC50 recorded for CC(=O)CC1CC2=C(C(=O)c3cccc(O)c3C2=O)C(O[C@H]2C[C@H](NC(=O)C(F)(F)F)[C@H](O)[C@H](C)O2)O1 (mixture of isomers) with T47D (Ductal carcinoma of breast) (enter value)
## Output 10000

----------
Tested on: T47D (Ductal carcinoma of breast)
Experiment Notes: In vitro cytotoxicity, microculture tetrazolium (MTT) assay, T47D
Type: cell-based, Human
Assay Context: Homo sapiens, 48 h with compound, further 48 h, Table 1
Counter-ions that a name gives are not always drawn.
Attribute: pIC50
For clarity, pIC50 is expressed as the negative log10 of concentration in mol/L.

CC(=O)O[C@@H]1[C@H](C)O[C@@H](O[C@H]2O[C@H](C(C)=O)CC3=C2C(=O)c2ccccc2C3=O)C(Br)[C@@H]1OC(C)=O (some centres unmarked) [BCH2100]
5.40
COC(=O)[C@H](CC(C)C)NC(=O)[C@@H](N)CO[C@H]1O[C@H](C(C)=O)CC2=C1C(=O)c1ccccc1C2=O [BCH2000, hydrochloride]
6.47
CO[C@H]1C[C@H](O[C@H]2O[C@H](C(C)=O)C[C@]34O[C@]23C(=O)c2ccccc2C4=O)O[C@@H](C)[C@H]1OS(C)(=O)=O [BCH2141]
5.42

## Input Dear colleague, I am looking for the recorded pIC50 of the following compound: CC(C)[C@@H]1CC2=C(C(=O)c3ccccc3C2=O)[C@@H](O[C@H]2C[C@H](NC(=O)C(F)(F)F)[C@H](O)[C@H](C)O2)O1 [BCH2053]
## Output 4.91

## Input Dear colleague, I am looking for the recorded pIC50 of the following compound: CO[C@H]1C[C@H](O[C@H]2O[C@H](C(C)=O)CC3=C2C(=O)c2ccccc2C3=O)O[C@@H](C)[C@H]1OS(C)(=O)=O [BCH2070]
## Output 7.74

## Input Dear colleague, I am looking for the recorded pIC50 of the following compound: CC[C@H]1CC2=C(C(=O)c3ccccc3C2=O)[C@H](O[C@H]2C[C@H](NC(=O)C(F)(F)F)[C@H](O)[C@H](C)O2)O1 [BCH2020]
## Output 5.03

## Input Dear colleague, I am looking for the recorded pIC50 of the following compound: CC(=O)[C@@H]1CC2=C(C(=O)c3ccccc3C2=O)[C@@H](O[C@H]2C[C@H](NC(=O)C(F)(F)F)[C@H](I)[C@H](C)O2)O1 [BCH1620]
## Output 6.74

## Input Dear colleague, I am looking for the recorded pIC50 of the following compound: CC(=O)[C@H]1CC2=C(C(=O)c3ccc(O)cc3C2=O)[C@H](O[C@H]2C[C@H](NC(=O)C(F)(F)F)[C@H](O)[C@H](C)O2)O1 [BCH1180]
## Output 5.12

## Input Dear colleague, I am looking for the recorded pIC50 of the following compound: CC(=O)C1CC2=C(C(=O)c3ccccc3C2=O)C(O[C@H]2C[C@H](O)[C@H](O)[C@H](C)O2)O1 (mixture of isomers) [BCH2117]
## Output 7.43

## Input Dear colleague, I am looking for the recorded pIC50 of the following compound: CC(=O)[C@H]1CC2=C(C(=O)c3ccccc3C2=O)[C@H](O[C@H]2C[C@H](NC(=O)C(F)(F)F)[C@H](OC(=O)CBr)[C@H](C)O2)O1 [BCH2105]
## Output 7.72

----------
Tested on: SKVLB (Ovarian; multidrug resistant)
Experiment Notes: In vitro cytotoxicity, microculture tetrazolium (MTT) assay, SKVLB
Format: cell-based, Human
Assay Context: Homo sapiens; SKVLB multidrug resistant ovarian; 48 h with compound, further 48 h, MTT; Table 1
Structures can show the parent of a compound that is named as a salt.
Quantity: IC50 (µM)
Give the number; µM is assumed, so skip it.

Worked examples, 3 molecules total:
CC(=O)CC1CC2=C(C(=O)c3cccc(O)c3C2=O)C(O[C@H]2C[C@H](NC(=O)C(F)(F)F)[C@H](O)[C@H](C)O2)O1 (mixture of isomers) [BCH2098]
30
CC(=O)[C@H]1CC2=C(C(=O)c3ccccc3C2=O)[C@H](O[C@@H]2O[C@@H](C)[C@@H](O)[C@@H](NC(=O)C(F)(F)F)C2I)O1 (stereo partly drawn) [BCH2022]
1.87
COC1OC(C(=O)Nc2ccccc2)=CC2=C1C(=O)c1ccccc1C2=O (stereo not drawn) [BCH2044]
5.11

## Input Dear colleague, I am looking for the recorded IC50 of the following molecule: COC(=O)[C@H](CC(C)C)NC(=O)[C@@H](N)CO[C@H]1O[C@H](C(C)=O)CC2=C1C(=O)c1ccccc1C2=O [BCH2000, hydrochloride]
## Output 6.64

## Input Dear colleague, I am looking for the recorded IC50 of the following molecule: CC(=O)O[C@@H]1[C@H](C)O[C@@H](O[C@H]2O[C@H](C(C)=O)CC3=C2C(=O)c2ccccc2C3=O)C(Br)[C@@H]1OC(C)=O (stereo partly drawn) [BCH2100]
## Output 8.22

## Input Dear colleague, I am looking for the recorded IC50 of the following molecule: CC(=O)O[C@H]1[C@@H](I)[C@H](O[C@H]2O[C@H](C(C)=O)CC3=C2C(=O)c2ccccc2C3=O)O[C@@H](C)[C@H]1OC(C)=O [BCH1666]
## Output 0.205

Data provenance: patent US5606037A
